# Test system: NCI-H226 lung
# protocol_text: NCI-60 one-dose screen, 48 h
# experimental_setup: 10 µM unless noted
The panel holds about 83,000 compounds, 20% with a hit somewhere; the sample as a whole holds those more often. Calls of active or inactive are those of the source. The calls were made as follows: active = growth percent below 10; inactive = the rest.
Mark one answer only. Choices: 1 for active, 0 for inactive

-- ask What did this assay record as the result for O=C(Nc1ccc(F)cc1)c1cc(-c2ccc(F)cc2F)ccc1O ?
-- reply 1

-- ask What did this assay record as the result for CCOC(=O)c1c(NC(=O)c2ccc(C(C)(C)C)cc2)sc2cc(OCCN3CCCCC3)ccc12 ?
-- reply 0

-- ask What did this assay record as the result for Oc1ccccc1/C=N/Nc1nc(N/N=C/c2ccccc2O)nc(N2CCOCC2)n1 ?
-- reply 0

-- ask What did this assay record as the result for COc1ccc(NC(=O)[C@H](C)N)cc1C(=O)Nc1cccc(-c2cc(=O)c3c(OC)c(OC)c(OC)cc3o2)c1 ?
-- reply 0

-- ask What did this assay record as the result for C=C1C(=O)O[C@@H]2/C=C(/C)C3=CC(=O)[C@@](C)(C[C@H](OC(=O)/C(C)=C\C)[C@@H]12)O3 ?
-- reply 0

-- ask What did this assay record as the result for CNC(=O)c1cc(Oc2ccc3nc(NC(=O)c4ccc(CN5CCN(C)CC5)c(C(F)(F)F)c4)sc3c2)ccn1 ?
-- reply 0

-- ask What did this assay record as the result for Oc1ccc(CSc2nnc(-c3ccncc3)n2-c2ccccc2)c2cccnc12 ?
-- reply 0

-- ask What did this assay record as the result for Cc1ccc(NC(=O)c2ccc(CN3CCN(C)CC3)c(C(F)(F)F)c2)cc1Oc1ccc(-c2[nH]nc3ncnc(N)c23)cc1 ?
-- reply 0

-- ask What did this assay record as the result for O=C(Cn1cc(CN2C(=O)c3ccc([N+](=O)[O-])cc3C2=O)nn1)Nc1ccc(F)cc1Cl ?
-- reply 0

-- ask What did this assay record as the result for Cc1nn(-c2ccccc2)cc1/C=N/Nc1nc(Nc2ccccc2)nc(Nc2ccc(S(N)(=O)=O)cc2)n1 ?
-- reply 1

-- ask What did this assay record as the result for COc1ccc(S(=O)(=O)n2cc(C=O)c3ccccc32)c(OC)c1 ?
-- reply 0

-- ask What did this assay record as the result for CCOC(=O)CC(=O)CSC1=NC2C(NN1)N(C)C(=O)N2C (centres undefined) ?
-- reply 0

-- ask What did this assay record as the result for Cc1ccc(Nc2ncnc3c2c(C)nn3-c2ccc([N+](=O)[O-])cc2)cc1 ?
-- reply 1

-- ask What did this assay record as the result for C=CCn1c(SCC(=O)Nc2cccc(C(=O)/C=C/c3cc(OC)c(OC)c(OC)c3)c2)nc2ccccc2c1=O ?
-- reply 0

-- ask What did this assay record as the result for N#Cc1ccc(S(=O)(=O)Nc2ccc(-c3cnc(N)[nH]3)cc2)cc1 ?
-- reply 0

-- ask What did this assay record as the result for C#C[C@]1(O)CC[C@H]2[C@@H]3CC=C4c5sc(-c6ccc(OC)cc6)nc5CC[C@]4(C)[C@H]3CC[C@@]21C ?
-- reply 0

-- ask What did this assay record as the result for O=C(COc1ccc(C2SCC(=O)N2c2ccccc2)cc1)c1ccccc1 (centres undefined) ?
-- reply 0

-- ask What did this assay record as the result for CSc1nccc(-c2c(-c3ccc(F)c(OCc4ccc(F)cc4)c3)nc3sccn23)n1 ?
-- reply 0

-- ask What did this assay record as the result for CS(=O)(=O)c1ccc(-c2nn(-c3ccccc3)cc2/C=N/NC(=O)c2ccncc2)cc1 ?
-- reply 0

-- ask What did this assay record as the result for O=C(/C=C/c1cn(-c2ccccc2)nc1-c1ccc(Cl)cc1)c1cc2ccccc2oc1=O ?
-- reply 0

-- ask What did this assay record as the result for CCOC(=O)c1c(NCC(=O)Nc2cccc(Cl)c2)sc2c1CCCC2 ?
-- reply 0

-- ask What did this assay record as the result for CC1OC(O[C@@H]2[C@H](O)C(CO)OC(O[C@H]3COC(O[C@H]4CC[C@]5(C)[C@H]6CC[C@]78OC[C@@]9(CC[C@](C)(C=O)C[C@H]97)C(=O)C[C@@]8(C)[C@]6(C)CC[C@H]5C4(C)C)[C@@H](O)[C@@H]3O)[C@H]2OC2OC[C@@H](O)[C@@H](O)[C@@H]2O)[C@@H](O)[C@@H](O)[C@H]1O (some centres undefined) ?
-- reply 0

-- ask What did this assay record as the result for Cc1cc(O)c(=O)cc2c1C[C@H]1CC(C)(C)/C=C/C[C@]3(C)Oc4cc(=O)c(O)cc(C)c4C[C@H]3C[C@H](O)[C@@]1(C)O2 ?
-- reply 0

-- ask What did this assay record as the result for CCN1C(=O)N(CC)C2SC(N/N=C/c3ccccc3F)=NC21 (centres undefined) ?
-- reply 0

-- ask What did this assay record as the result for N#Cc1c(-c2ccccc2)cc(-c2c[nH]c3ccccc23)nc1-c1c[nH]c2ccccc12 ?
-- reply 0

-- ask What did this assay record as the result for O=C1c2c(c3c4cc(Br)ccc4[nH]c3c3ccc4ccccc4c23)C(=O)N1CCN1CCNCC1 ?
-- reply 0

-- ask What did this assay record as the result for COc1ccc([C@H]2[C@H](O)C(=O)N2c2cc(OC)c(OC)c(OC)c2)cc1Cl ?
-- reply 0

-- ask What did this assay record as the result for O=C(/C=C1\C=CN(CCCCO)c2ccccc21)n1ccc2ccccc21 ?
-- reply 0

-- ask What did this assay record as the result for C#C[C@]1(O)CC[C@H]2[C@@H]3CC=C4c5sc(Nc6cc(OC)ccc6OC)nc5CC[C@]4(C)[C@H]3CC[C@@]21C ?
-- reply 0

-- ask What did this assay record as the result for C=C1C(=O)O[C@@H]2C[C@@H](C)[C@H](OC)CC(=O)[C@](C)(OC(C)=O)C[C@H](OC(=O)/C(C)=C\C)[C@@H]12 ?
-- reply 0

-- ask What did this assay record as the result for O=C(Nc1cccc(-c2nc(-c3ccc(NC(=O)c4cccs4)cc3Cl)no2)c1)Nc1ccc(NC(=O)C2CC2)c(C(F)(F)F)c1 ?
-- reply 1

-- ask What did this assay record as the result for O=C(Nc1ccccc1)Nc1nc2ccc([N+](=O)[O-])cc2s1 ?
-- reply 1

-- ask What did this assay record as the result for CCOc1ccc2nc(NC(=O)Nc3ccccc3C)sc2c1 ?
-- reply 0

-- ask What did this assay record as the result for C/C(=C(/C)C1CC1CCN(C(=O)c1ccc([N+](=O)[O-])cc1)S(=O)(=O)c1ccc(C)cc1)C1CCCCC1 (centres undefined) ?
-- reply 0

---

# System: A549/ATCC NSCLC
# protocol_text: NCI-60 one-dose screen, 48 h
# experimental_setup: 10 µM unless noted
The panel holds about 83,000 compounds, 20% with a hit somewhere; the sample as a whole holds those more often. Activity calls are given as the source filed them. Rule for the calls: active = growth percent below 10; inactive = the rest.
Mark one answer only. Choices: 1 (yes) for active, 0 (no) for inactive

-- ask What did this assay record as the result for Cn1cc(-c2nn3c(=O)cc(-c4ccccc4)nc3s2)c2cc(F)ccc21 ?
-- reply 0 (no)

-- ask What did this assay record as the result for CC(=O)NC(C)(C)C(=O)N[C@@H](C)C(=O)NC(C)(C)C(=O)N[C@@H](C)C(=O)NC(C)(C)C(=O)N[C@@H](C)C(=O)N[C@@H](CCC(N)=O)C(=O)NC(C)(C)C(=O)N[C@H](C(=O)NC(C)(C)C(=O)NCC(=O)N[C@@H](CC(C)C)C(=O)NC(C)(C)C(=O)N1CCC[C@H]1C(=O)N[C@H](C(=O)NC(C)(C)C(=O)NC(C)(C)C(=O)N[C@@H](CCC(N)=O)C(=O)N[C@@H](CCC(N)=O)C(=O)N[C@H](CO)CC1CCCCC1)C(C)C)C(C)C ?
-- reply 0 (no)

-- ask What did this assay record as the result for Nc1nc(-c2cccc([N+](=O)[O-])c2)c(N=Nc2cccc(Cl)c2)s1 ?
-- reply 0 (no)

-- ask What did this assay record as the result for Cc1ccc(-c2cc(-c3ccc(N(C)C)cc3)n3c(n2)nc2ccccc23)cc1 ?
-- reply 0 (no)

-- ask What did this assay record as the result for Cc1ccc(-c2cc(-c3cccc4ccccc34)n3c(n2)nc2ccccc23)cc1 ?
-- reply 0 (no)

-- ask What did this assay record as the result for CCCCOc1ccc(S(=O)(=O)N2CCN(c3nccc(N4CCOCC4)n3)CC2)cc1 ?
-- reply 0 (no)

-- ask What did this assay record as the result for O=C(/C=C1\C=CN(CCCCO)c2ccccc21)n1ccc2ccccc21 ?
-- reply 0 (no)

-- ask What did this assay record as the result for COc1ccc(-c2nc3cc(Cl)c(Cl)cc3n2CC(=O)N=Nc2c(O)[nH]c3ccc(Br)cc23)cc1 ?
-- reply 1 (yes)

-- ask What did this assay record as the result for CCN1CCN(c2cc(C(=O)Nc3nc4ccc(Oc5ccnc(C(=O)NC)c5)cc4s3)cc(C(F)(F)F)c2)CC1 ?
-- reply 0 (no)

-- ask What did this assay record as the result for C(=C(\C1=NCCN1)n1cnc2ccccc21)/c1ccc2ccccc2c1 ?
-- reply 0 (no)

-- ask What did this assay record as the result for N/C(=N\OC(=O)CSc1nc2ccccc2s1)c1ccc(Cl)cc1 ?
-- reply 0 (no)

-- ask What did this assay record as the result for CN(C)c1ccc(/C=N/Nc2nc(N/N=C/c3ccc(N(C)C)cc3)nc(N3CCOCC3)n2)cc1 ?
-- reply 0 (no)

-- ask What did this assay record as the result for O=C(NCCCCCCNC(=O)c1c2c(nc3ccccc13)-c1cccnc1SC2)c1c2c(nc3ccccc13)-c1cccnc1SC2 ?
-- reply 0 (no)

-- ask What did this assay record as the result for COc1ccc(Cn2cc3c(c2-c2cc(OC)c(OC)c(OC)c2)CCCc2cnoc2-3)cc1 ?
-- reply 0 (no)

-- ask What did this assay record as the result for CN1CCN(c2ccc(C(=O)/C=C/c3ccc(Cl)c(C(F)(F)F)c3)cc2)CC1 ?
-- reply 0 (no)

-- ask What did this assay record as the result for COc1ccc(Cn2cc3c(c2-c2ccccc2)CCCc2cnoc2-3)cc1 ?
-- reply 0 (no)
